Assay: in vitro
Details: human, hela cells, % viability
readout_type: viability at 28.5 h, 10 µM (%)

>>> df
                                    compound                readout_type  test_value
 0  c1ccc(CN2CC[C@H](Nc3nccnc3-c3cccnc3)C2)cc1  viability at 28.5 h, 10 µM         104
 1  Cc1ccc(Nc2nc(N/N=C/c3ccccc3)nc(N3CCC(Cc4ccccc4)CC3)n2)cc1  viability at 28.5 h, 10 µM        76.7
 2  c1cncc(COc2ccnc(N3CCCN(Cc4ccc5c(c4)OCO5)CC3)n2)c1  viability at 28.5 h, 10 µM        92.5
 3  COc1ccccc1C1C(C(=O)c2sc(C)nc2C)=C(O)C(=O)N1CCCN1CCOCC1 (stereo not shown)  viability at 28.5 h, 10 µM         113
 4  CCOc1ccc(S(=O)(=O)N2CCSC2c2ccc(OC)c([N+](=O)[O-])c2)cc1 (stereo not shown)  viability at 28.5 h, 10 µM         101
 5  CCc1c(C(=O)NCc2cccnc2-n2cncn2)cnn1-c1ccc(OC)nn1  viability at 28.5 h, 10 µM        90.5
 6  CN1CCCCCC1c1nc(-c2c[nH]c3ccccc23)nn1CCO (stereo not shown)  viability at 28.5 h, 10 µM          96
 7            Nc1cccc(Sc2ccc(C(F)(F)F)cn2)c1  viability at 28.5 h, 10 µM         107
 8  Cc1nc2c(OCc3ccc(F)c(F)c3)cccn2c1N(C)CC1CC1  viability at 28.5 h, 10 µM        91.9
 9  Cc1cc(C)cc(S(=O)(=O)c2ccc3ccnc(N4CCCNCC4)c3c2)c1 [CBK036413C]  viability at 28.5 h, 10 µM        87.1
10       Cc1cccc(Nc2nc(N)nc(CSc3nccn3C)n2)c1  viability at 28.5 h, 10 µM        98.7
11   O=C(NCCN1CCC(O)(c2ccc(F)cc2)CC1)c1cccs1  viability at 28.5 h, 10 µM        91.5
12  COc1ccc(Cc2nnc(SCC(=O)Nc3ccc(Br)c(C)c3)n2C)cc1  viability at 28.5 h, 10 µM        83.9
13  Cc1ccc(Cn2nc(NC(=O)c3cc(C)on3)c3ccccc32)cc1  viability at 28.5 h, 10 µM        90.8
14     COc1ccc(CN2C(=O)CS(=O)(=O)CC2=O)cc1OC  viability at 28.5 h, 10 µM        86.4
15  COc1ccc(OC(C)C(=O)O/N=C(\N)c2ccccn2)cc1 (stereo not shown)  viability at 28.5 h, 10 µM         100
16  O=C(O)C1CCN(C(=O)CCN2C(=O)[C@@H]3Cc4ccccc4CN3C2=O)CC1  viability at 28.5 h, 10 µM        88.2
17                       CCOC(=O)c1cn[nH]c1N  viability at 28.5 h, 10 µM        89.4
18                c1ccc(Sc2nccnc2N2CCCC2)nc1  viability at 28.5 h, 10 µM        87.7
